# Assay explanation: modulators of CIT2-GFP expression in yeast, confirmation, S. cerevisiae, GFP fusion, cherry picks, mother/daughter gates (AID 2274)
# Conditions: S. cerevisiae CIT2-GFP strain, flow cytometry, 3 h; measured here: mother cell gate; at 10 µM; stronger effect = higher value
Measure name: GFP response, % of DMSO (%)
Value expressed in %; do not type the unit.

Illustrative cases are given below, each with its answer.
>>> number("Cc1nonc1C(=O)N/N=C/c1ccc([N+](=O)[O-])o1")
104
>>> number("Cc1ccc(/C=C/C(=O)NC2CCCCCCC2)o1")
97.3
>>> number("O=C(CN1CCN(Cc2ccccc2Cl)C1=O)NC1CCCCCCC1")
104

Prompt: Dear colleague, please send me the reported GFP response, % of DMSO for `Cc1[nH]n(-c2ccccc2)c(=O)c1/C=N/Nc1nncc(-c2ccccc2)n1` when you can.
Response: 83.8

Prompt: Give recorded GFP response, % of DMSO. `O=[N+]([O-])c1ccc(Cl)cc1Sc1ccccn1`
Response: 108

Prompt: // fetch GFP response, % of DMSO given entry `NS(=O)(=O)c1ccc(Sc2ccccn2)c([N+](=O)[O-])c1`
Response: 98.5

Prompt: Recall and state the measured GFP response, % of DMSO for `Cc1noc2ncnc(Sc3c(Cl)cccc3Cl)c12` .
Response: 104

Prompt: Read off the recorded GFP response, % of DMSO for `CN(C)c1ccc(N=Cc2nc(-c3ccccc3)oc2OC(=O)c2cccc(Cl)c2)cc1`
Response: 102

Prompt: Hello, please tell me recorded GFP response, % of DMSO for this one: `[O-][n+]1cccc2c(Br)cc(Br)c(O)c21`
Response: 95.7

Prompt: Report GFP response, % of DMSO, nothing else, for this molecule: `Cc1c(Cc2ccccc2)c(NCCN(C)C)n2c(nc3ccccc32)c1C#N`
Response: 92.8

----------
# Assay explanation: modulators of CIT2-GFP expression in yeast, confirmation, S. cerevisiae, GFP fusion, cherry picks, mother/daughter gates (AID 2274)
# Conditions: S. cerevisiae CIT2-GFP strain, flow cytometry, 3 h; at 10 µM; stronger effect = higher value
Measure name: GFP response, % of DMSO (%)
Dear colleague, please return just the value in %, with no unit written.

Recorded GFP response, % of DMSO, per entry:
>>> number("Cc1sc(NC(=O)c2cccs2)nc1-c1ccccc1")
95.9
>>> number("CCn1c(=O)c(C(=O)NCCCO)c(O)c2ccccc21")
106
>>> number("Cn1cc(/C=C/c2cc[n+](C)cc2)c2cc(Cl)ccc21")
125
>>> number("O=C(Nc1nc(-c2ccccc2)cs1)c1cccs1")
97.8
>>> number("O=[N+]([O-])c1cc(F)c2cccnc2c1O")
107

Prompt: Return GFP response, % of DMSO for the following compound: `CCOC(=O)c1cnn(-c2cc(C)nc3c(-c4ccccc4)c(C)nn23)c1N`
Response: 98.3

----------
Recorded GFP response, % of DMSO for the following compounds
# Assay explanation: modulators of CIT2-GFP expression in yeast, confirmation, S. cerevisiae, GFP fusion, cherry picks, mother/daughter gates (AID 2274)
# Conditions: S. cerevisiae CIT2-GFP strain, flow cytometry, 3 h; measured here: mother cell gate; at 10 µM; stronger effect = higher value
Dear colleague, please return just the value in %, with no unit written.

>>> number("COc1ccc(CNC(=O)c2nc(S(=O)(=O)Cc3ccccc3)ncc2Cl)cc1")
105
>>> number("N#C/C(=C\\c1c(N2CCCCCC2)nc2ccccn2c1=O)C(=O)NC1CCS(=O)(=O)C1 (configuration not stated)")
108
>>> number("CCOc1ccc(N2C(=O)CC(Sc3ncccn3)C2=O)cc1 (configuration not stated)")
104
>>> number("COc1ccc(-c2csc(Nc3ncccc3C)n2)cc1")
99.7
>>> number("CN1/C(=C\\C(=O)c2cccc(S(=O)(=O)N3CCCCC3)c2)C(C)(C)c2ccccc21")
98.5

Prompt: Using the record for `COc1cccc(N=Nc2ccc3cccnc3c2O)c1` , state its measured GFP response, % of DMSO.
Response: 96.8

Prompt: Give GFP response, % of DMSO for the following compound: `Cc1c(N2C(=O)/C(=C\c3ccccc3O)SC2=S)c(=O)n(-c2ccccc2)n1C`
Response: 95.6

----------
# System: anti-desmoglein-3 scFv antibody binding to human DSG3
# Assay explanation: inhibitors of anti-DSG3 scFv binding to DSG3, pilot screen, biochemical, validation compound set, bead-based, flow cytometry (AID 588368);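 note: signal is the median channel fluorescence of bead-bound GFP antibody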
# Conditions: Protein G beads, DSG3-Fc, scFv-GFP binding, at 10 µM, stronger effect = lower value
Below, each entry is listed alongside its reported binding (% of control).
The figure you give is taken to be in %; do not add the unit.

Prompt: Provide only the value of recorded binding (% of control) for `O=C(/C=C/c1ccco1)N1CCN(c2ccccc2)CC1`
Response: 101

Prompt: Specify reported binding (% of control) for the molecule shown: `CCOc1ccc(C(=O)Nc2ccc(N3CCN(C(C)=O)CC3)cc2)cc1[N+](=O)[O-]`
Response: 99.4

Prompt: Give me measured binding (% of control), please, for this molecule: `O=C(Oc1cccccc1=O)c1ccccc1`
Response: 102

Prompt: Given the molecule CC(CCc1ccccc1)NCC(O)c1ccc(O)c(C(N)=O)c1 (stereo not given) , write its reported binding (% of control).
Response: 101

Prompt: Tell us which binding (% of control) value is on record for `O=C(CNC(=O)OCc1ccccc1)NC1CCCCCC1`
Response: 99.1

----------
Measured superoxide response (% of plate), listed per entry for reference.
# Assay explanation: superoxide lowering in aged yeast cells, pilot screen, validation compound set (AID 2706);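 note: yeast exposed to compound for one week at 30 degrees C before staining; 100% = mean of all compound wells on the same plate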
# Conditions: S. cerevisiae aging, superoxide DHE fluorescence; at 10 µM, stronger effect = lower value
Express it in %; write the number only.

These solved cases illustrate the format of a correct answer.
>>> number("CCOC(=O)c1cnc2ccccc2c1NCCO")
98.1
>>> number("COc1cc(/C=C/C(=O)N2CCCC2)cc(OC)c1OC")
95.8
>>> number("O=C(CC(C(=O)O)c1c[nH]c2ccccc12)c1ccccc1 (configuration not stated)")
92.2
>>> number("O=[N+]([O-])c1cc(/C=N/n2cnnc2)ccc1N1CCCC1")
105
>>> number("O=C(c1ccccc1)N1CCN(C(=O)c2ccccc2)CC1")
102

Prompt: Report measured superoxide response (% of plate); entry is `CNCCCN1c2ccccc2CCc2ccccc21`
Response: 81.9

Prompt: Quickly give me recorded superoxide response (% of plate) for `Cc1oc2cc(O)ccc2c(=O)c1Oc1ccccc1Br`
Response: 101

Prompt: Quick one: give measured superoxide response (% of plate) for COc1cc2c(cc1O)CCN(C(=O)c1ccco1)C2C (configuration not stated)
Response: 98.4

Prompt: Return superoxide response (% of plate) (reported value) for this molecule: CC1(C)NC(C(=O)O)Cc2c1[nH]c1ccccc21 (configuration not stated)
Response: 97.5

Prompt: Kindly indicate its recorded superoxide response (% of plate). Item: CC1=CC2(O)OCCN(CCO)C2=CC1=O (configuration not stated)
Response: 103

Prompt: In one line, give reported superoxide response (% of plate) of the entry `C[C@H](CS)C(=O)N1CCC[C@H]1C(=O)O` .
Response: 97.4

Prompt: Identify measured superoxide response (% of plate) associated with COc1c(C)cc(C(=O)C2CCCN(Cc3ccc(Oc4ncccn4)cc3)C2)cc1C (configuration not stated)
Response: 99.2

Prompt: Find the measured superoxide response (% of plate) of `COC(=O)c1[nH]c2ccccc2c1NC(=O)CN1CCN(C/C=C/c2ccccc2)CC1` and report it.
Response: 98

Prompt: Complete the entry with superoxide response (% of plate) for CO[C@@H]1O[C@@H]2COC(c3ccccc3)O[C@@H]2[C@@H](OC)[C@@H]1O (some centres not stated)
Response: 117

Prompt: Give reported superoxide response (% of plate) value for `COc1cccc(N2CC(O)=C(c3nc4ccccc4c(=O)[nH]3)C2=N)c1`
Response: 106

Prompt: Please give measured superoxide response (% of plate) of the following entry: `COc1ccc2[nH]c(C)c(CN3CCC(C)CC3)c(=O)c2c1`
Response: 100

Prompt: For the molecule `O=C(O)CCSc1nc2ccccc2s1` , give its measured superoxide response (% of plate) value.
Response: 115

Prompt: Using the record for `COc1ccc(NC(=S)NCCc2c[nH]c3ccccc23)cc1` , state its measured superoxide response (% of plate).
Response: 111

Prompt: Give the measured superoxide response (% of plate) for `O=c1cc(Cn2ccnc2)c2cc3c(cc2o1)CCC3`
Response: 99.2

Prompt: Specify reported superoxide response (% of plate) for the molecule shown: `CC(C)[N+](C)(CCOC(=O)C1c2ccccc2Oc2ccccc21)C(C)C`
Response: 81.9

Prompt: Specify measured superoxide response (% of plate) for `CCOC(=O)c1ccccc1NC(=O)c1ccc(F)cc1` .
Response: 100

Prompt: Give me measured superoxide response (% of plate), please, for this molecule: `Cc1ccccc1-c1coc2cc(O)ccc2c1=O`
Response: 89.2
